# Tested System: c-kit (Homo sapiens)
# Construct: MO7e (human megakaryocytic leukemia cell line) which had been arrested for 20 hr; endogenous in cells; host or cells: MO7e human megakaryocytic leukemia cell line
# Protocol Text: Inhibitory activity against c-kit autophosphorylation (MO7e cells, h-SCF)
# Type: cell-based
# Condition Set: MO7e cells, h-SCF 50 ng/ml; read-out: c-kit IC50
Strictly below 100 nM in IC50: TRUE. Otherwise: FALSE.

Molecule: COc1ccc(OCCCOC(=O)Nc2ccc(Oc3ccnc4cc(OC)c(OC)cc34)c(C)c2C)cc1 [Example 43]
Tested System: c-kit (Homo sapiens)
Assigned Label: FALSE

Molecule: COc1cc2nccc(Oc3cc(C)c(NC(=O)Oc4ccccc4)cc3C)c2cc1OC [Example 224]
Tested System: c-kit (Homo sapiens)
Assigned Label: FALSE

Molecule: C=CCOC(=O)Nc1cc(C)c(Oc2ccnc3cc(OC)c(OC)cc23)cc1C [Example 373]
Tested System: c-kit (Homo sapiens)
Assigned Label: TRUE

Molecule: COc1cc2nccc(Oc3ccc(NC(=O)OCc4cccc(Cl)c4)cc3)c2cc1OC [Example 228]
Tested System: c-kit (Homo sapiens)
Assigned Label: TRUE

Molecule: COc1cccc(OC(=O)Nc2ccc(Oc3ccnc4cc(OC)c(OC)cc34)c(C)c2C)c1 [Example 291]
Tested System: c-kit (Homo sapiens)
Assigned Label: FALSE

Molecule: COc1cc2ncnc(Oc3ccc(NC(=O)OCCCOc4cccc(Cl)c4)c(C)c3C)c2cc1OC [Example 212]
Tested System: c-kit (Homo sapiens)
Assigned Label: TRUE

Molecule: COc1cc2ncnc(Oc3ccc(NC(=O)OC4CCCCC4)c(C)c3C)c2cc1OC [Example 391]
Tested System: c-kit (Homo sapiens)
Assigned Label: FALSE

Molecule: COc1cc2nccc(Oc3ccc(NC(=O)OC(C)C)cc3)c2cc1OC [Example 324]
Tested System: c-kit (Homo sapiens)
Assigned Label: TRUE

----------
# Tested System: c-kit (Homo sapiens, UniProt P10721)
# Construct: MO7e (human megakaryocytic leukemia cell line) which had been arrested for 20 hr; endogenous in cells; host or cells: MO7e human megakaryocytic leukemia cell line
# Sequence (P10721 26-976): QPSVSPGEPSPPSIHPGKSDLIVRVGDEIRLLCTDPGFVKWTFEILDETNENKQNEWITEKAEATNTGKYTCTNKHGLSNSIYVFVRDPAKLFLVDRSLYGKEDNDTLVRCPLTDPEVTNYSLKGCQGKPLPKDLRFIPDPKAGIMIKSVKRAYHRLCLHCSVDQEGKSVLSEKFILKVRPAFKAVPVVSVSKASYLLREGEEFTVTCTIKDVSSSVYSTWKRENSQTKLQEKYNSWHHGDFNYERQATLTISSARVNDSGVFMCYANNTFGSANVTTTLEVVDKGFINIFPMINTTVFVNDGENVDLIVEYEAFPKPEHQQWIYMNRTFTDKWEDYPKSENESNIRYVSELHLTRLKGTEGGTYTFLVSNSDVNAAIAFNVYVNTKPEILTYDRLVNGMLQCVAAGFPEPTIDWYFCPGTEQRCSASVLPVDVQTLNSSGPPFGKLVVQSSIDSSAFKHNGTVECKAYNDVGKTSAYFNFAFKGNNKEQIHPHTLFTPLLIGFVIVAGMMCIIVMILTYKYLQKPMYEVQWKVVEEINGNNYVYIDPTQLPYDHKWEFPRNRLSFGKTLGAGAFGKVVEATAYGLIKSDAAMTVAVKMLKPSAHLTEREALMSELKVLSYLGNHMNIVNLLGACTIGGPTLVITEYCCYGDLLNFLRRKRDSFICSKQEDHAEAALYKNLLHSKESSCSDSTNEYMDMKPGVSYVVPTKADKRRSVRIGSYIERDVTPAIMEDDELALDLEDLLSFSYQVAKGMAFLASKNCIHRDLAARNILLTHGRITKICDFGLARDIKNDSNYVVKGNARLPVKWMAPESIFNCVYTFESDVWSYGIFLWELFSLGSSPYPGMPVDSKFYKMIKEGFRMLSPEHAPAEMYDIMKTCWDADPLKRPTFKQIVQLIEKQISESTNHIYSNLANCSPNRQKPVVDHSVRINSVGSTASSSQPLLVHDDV
# Protocol Text: Inhibitory activity against c-kit autophosphorylation (MO7e cells, h-SCF)
# Format: cell-based
# Condition Set: MO7e cells, h-SCF stimulation; read-out: c-kit IC50
pIC50: −log10 of the molar value.
This listing pairs molecules with measured pIC50.
Readout Label: pIC50

Structure String: CCc1ccc(C(=O)NC(=S)Nc2ccc(Oc3ccnc4cc(OC)c(OC)cc34)c(F)c2)cc1
Measured Result: 6.58
//
Structure String: COc1cc2nccc(Oc3ccc(SCCOc4cccc(C)c4)cc3)c2cc1OC
Measured Result: 6.63
//
Structure String: COc1cc2nccc(Oc3ccc(SCCOc4ccccc4F)cc3)c2cc1OC
Measured Result: 6.35
//
Structure String: COc1cc2nccc(Oc3ccc(NC(=S)NC(=O)c4ccccc4)cc3C)c2cc1OC
Measured Result: 6.45
//
Structure String: COc1cc2nccc(Oc3ccc(NC(=S)NC(=O)CCC4CCCC4)cc3Cl)c2cc1OC
Measured Result: 6.47
//
Structure String: COc1cc2nccc(Oc3ccc(NC(=S)NC(=O)c4ccc(F)cc4F)cc3)c2cc1OC
Measured Result: 6.74
//
Structure String: COc1cc2nccc(Oc3ccc(NCCCOc4ccccc4C)cc3)c2cc1OC
Measured Result: 6.41
